Molecular target: PI3 kinase alpha (Homo sapiens, UniProt P42336)
Sequence (P42336 whole entry): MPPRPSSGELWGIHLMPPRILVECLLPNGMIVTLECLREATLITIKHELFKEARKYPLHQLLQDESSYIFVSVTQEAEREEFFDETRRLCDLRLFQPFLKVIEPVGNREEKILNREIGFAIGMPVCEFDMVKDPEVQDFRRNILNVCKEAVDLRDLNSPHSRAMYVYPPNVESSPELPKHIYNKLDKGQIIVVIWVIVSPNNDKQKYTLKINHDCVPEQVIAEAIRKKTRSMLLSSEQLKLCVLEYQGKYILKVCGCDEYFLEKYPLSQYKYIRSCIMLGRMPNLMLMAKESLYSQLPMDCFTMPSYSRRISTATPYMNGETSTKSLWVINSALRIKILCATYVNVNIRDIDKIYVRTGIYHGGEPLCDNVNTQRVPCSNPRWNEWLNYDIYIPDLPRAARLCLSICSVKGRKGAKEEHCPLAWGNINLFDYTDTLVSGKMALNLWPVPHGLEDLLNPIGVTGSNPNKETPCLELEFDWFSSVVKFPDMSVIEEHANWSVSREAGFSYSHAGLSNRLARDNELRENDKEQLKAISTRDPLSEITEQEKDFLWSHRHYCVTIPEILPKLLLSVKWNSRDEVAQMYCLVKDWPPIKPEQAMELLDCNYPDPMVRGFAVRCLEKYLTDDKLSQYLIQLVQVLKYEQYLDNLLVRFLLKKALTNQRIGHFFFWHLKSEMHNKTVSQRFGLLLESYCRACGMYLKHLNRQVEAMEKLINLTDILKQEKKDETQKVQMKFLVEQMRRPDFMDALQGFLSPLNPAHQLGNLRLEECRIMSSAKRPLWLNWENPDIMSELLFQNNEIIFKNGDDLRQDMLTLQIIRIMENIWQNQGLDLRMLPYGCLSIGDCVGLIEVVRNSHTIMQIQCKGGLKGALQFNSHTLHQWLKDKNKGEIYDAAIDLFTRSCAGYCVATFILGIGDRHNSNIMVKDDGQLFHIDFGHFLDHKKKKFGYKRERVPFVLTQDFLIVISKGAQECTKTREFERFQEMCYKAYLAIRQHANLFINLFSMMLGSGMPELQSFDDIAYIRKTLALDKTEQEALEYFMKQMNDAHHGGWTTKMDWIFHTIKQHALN
Sequence (P27986 whole entry partner): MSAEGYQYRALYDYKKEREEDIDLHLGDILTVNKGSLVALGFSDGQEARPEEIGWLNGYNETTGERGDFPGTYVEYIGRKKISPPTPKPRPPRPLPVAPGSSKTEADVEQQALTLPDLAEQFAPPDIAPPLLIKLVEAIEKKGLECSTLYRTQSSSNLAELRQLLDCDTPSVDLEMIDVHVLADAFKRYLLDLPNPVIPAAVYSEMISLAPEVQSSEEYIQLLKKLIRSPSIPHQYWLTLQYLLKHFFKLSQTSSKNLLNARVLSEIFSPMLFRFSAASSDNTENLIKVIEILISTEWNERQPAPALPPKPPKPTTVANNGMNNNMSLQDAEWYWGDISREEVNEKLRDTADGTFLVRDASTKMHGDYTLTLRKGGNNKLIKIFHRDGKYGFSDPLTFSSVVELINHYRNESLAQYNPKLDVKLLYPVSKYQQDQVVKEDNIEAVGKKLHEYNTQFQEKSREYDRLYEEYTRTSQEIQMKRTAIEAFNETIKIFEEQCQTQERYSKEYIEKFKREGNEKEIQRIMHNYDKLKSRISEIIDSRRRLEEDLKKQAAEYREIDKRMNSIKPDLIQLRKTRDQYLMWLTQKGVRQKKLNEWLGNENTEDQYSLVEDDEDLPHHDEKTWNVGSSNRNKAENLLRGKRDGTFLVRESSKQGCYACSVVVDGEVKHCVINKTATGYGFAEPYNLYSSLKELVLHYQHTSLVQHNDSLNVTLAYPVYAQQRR
Assay: PI3K ATP depletion assay (Biological Method 1, Assay 3; KinaseGlo luminescence)
Assay type: biochemical
Conditions: ATP depletion assay; read-out: PI3 Kinase Alpha, IC50
result type: IC50

Consider the worked cases shown below.
[
  {
    "test smiles": "Cc1cc(Nc2cc(-c3cnc(N)cc3C(F)(F)F)nc(N3CCOCC3)n2)ccn1",
    "result type": "IC50",
    "value observed": "< 1000 nM"
  },
  {
    "test smiles": "Nc1ccc(-c2cc(Nc3cc(F)ccc3F)nc(N3CCOCC3)n2)cn1",
    "result type": "IC50",
    "value observed": "< 1000 nM"
  },
  {
    "test smiles": "Nc1ncc(-c2cc(Nc3ccc4ncccc4c3)nc(N3CCOCC3)n2)cn1",
    "result type": "IC50",
    "value observed": "< 1000 nM"
  },
  {
    "test smiles": "CS(=O)(=O)c1cccc(Nc2cc(-c3ccc(N)nc3)nc(N3CCOCC3)n2)c1",
    "result type": "IC50",
    "value observed": "< 1000 nM"
  }
]

Kindly consider the entry below.
Please tell me: IC50 of `Nc1ncc(-c2nc(N3CCOCC3)ncc2C(=O)N2CCCC2)cn1` , system PI3 kinase alpha (Homo sapiens, UniProt P42336)?
< 10000 nM

---

System: A2780 ovarian cancer cells
Test: Cellular proliferation in A2780 cells, Cell Titer Glo (Biological Method 4)
Type: cell-based
Conditions: Homo sapiens; ovarian cancer cell line A2780
pEC50: −log10 of the molar value.
Measured pEC50 of individual entries

Request the reported pEC50 associated with Nc1ncc(-c2cc(N3CCOCC3)nc(N3CCOCC3)n2)c(=O)[nH]1 [Compound 77]
> 6.00

For the compound shown here, CC(=O)N1CCC(Oc2cc(-c3cnc(N)[nH]c3=O)nc(N3CCOCC3)n2)CC1 [Compound 30] , give the reported pEC50.
> 6.00

Any idea what pEC50 was measured for CS(=O)(=O)N1CCC(Oc2cc(-c3cnc(N)nc3N)nc(N3CCOCC3)n2)CC1 [Compound 120] ?
> 5.00

Please report the recorded pEC50 for COc1ccc(Nc2cc(-c3cnc(N)nc3N)nc(N3CCOCC3)n2)cn1 [Compound 73] .
> 5.00

---

Molecular target: PI3 kinase alpha (Homo sapiens, UniProt P42336)
Experiment: PI3K ATP depletion assay (Biological Method 1, Assay 3; KinaseGlo luminescence)
Type: biochemical
Conditions: ATP depletion assay, Biological Method 1; read-out: PI3 Kinase Alpha, IC50
Reported IC50 values for a set of molecules

Here is how some molecules turned out for IC50.
[
  {
    "molecule": "CC(=O)Nc1ccccc1Nc1cc(-c2ccc(N)nc2)nc(N2CCOCC2)n1",
    "result type": "IC50",
    "value observed": "< 10 µM"
  },
  {
    "molecule": "Nc1cc(C(F)(F)F)c(-c2cc(N3CCC(O)CC3)nc(N3CCOCC3)n2)cn1",
    "result type": "IC50",
    "value observed": "< 1 µM"
  },
  {
    "molecule": "CN(C)c1cc(-c2ccc(N)nc2)nc(N2CCOCC2)n1",
    "result type": "IC50",
    "value observed": "< 10 µM"
  },
  {
    "molecule": "CN1CCC(Oc2ncccc2-c2cc(-c3ccc(N)nc3)nc(N3CCOCC3)n2)C1 (centres unmarked)",
    "result type": "IC50",
    "value observed": "< 10 µM"
  },
  {
    "molecule": "Nc1ccc(-c2cc(N3CCNC(=O)C3)nc(N3CCOCC3)n2)cn1",
    "result type": "IC50",
    "value observed": "< 10 µM"
  }
]

Query: IC50; subject: `NC(=O)c1ccnc(Nc2cc(-c3ccc(N)nc3)nc(N3CCOCC3)n2)c1`
< 1 µM

Could you tell me which IC50 is on file for `Nc1ccc(-c2cc(Nc3ccc4c(c3)OCCO4)nc(N3CCOCC3)n2)cn1` ?
< 1 µM

Given `CN1CCN(c2ccc(Nc3cc(-c4ccc(N)nc4)nc(N4CCOCC4)n3)cn2)CC1` , state its recorded IC50.
< 1 µM

---

Tested on: A2780 ovarian cancer cells
Experiment: Cellular proliferation in A2780 cells, Cell Titer Glo (Biological Method 4)
Type: cell-based
Settings: Homo sapiens; ovarian cancer cell line A2780
Method: In addition, many of the compounds of Table 1 were tested to determine their inhibitory activity in a cellular proliferation assay according to Biological Method 4. The ability of the compounds of the invention to inhibit cellular proliferation were determined by using Cell Titer Glo, a commercially available assay from Promega Corporation. […]
pEC50: −log10 of the molar value.
result type: pEC50

Worked cases, pEC50 given:
[
  {
    "molecule": "CS(=O)(=O)Nc1ncccc1-c1cc(-c2cnc(N)cc2Cl)nc(N2CCOCC2)n1",
    "result type": "pEC50",
    "value observed": "> 6.00"
  },
  {
    "molecule": "Cc1c(-c2cnc(N)nc2)nc(N2CCOCC2)nc1-c1cnc(N)nc1",
    "result type": "pEC50",
    "value observed": "> 5.00"
  },
  {
    "molecule": "Nc1ncc(-c2cc(CNC(=O)OC3CCOC3)nc(N3CCOCC3)n2)c(N)n1 (centres unmarked)",
    "result type": "pEC50",
    "value observed": "> 4.60"
  },
  {
    "molecule": "CC(C)Oc1ccnc(Nc2cc(-c3cnc(N)cc3C(F)(F)F)nc(N3CCOCC3)n2)c1",
    "result type": "pEC50",
    "value observed": "> 5.00"
  },
  {
    "molecule": "COC(=O)N1CCC(Oc2cc(-c3cnc(N)cc3C(F)(F)F)nc(N3CCOCC3)n2)CC1",
    "result type": "pEC50",
    "value observed": "> 5.00"
  },
  {
    "molecule": "CC(=O)N1CCC[C@H](Oc2cc(-c3cnc(N)cc3C(F)(F)F)nc(N3CCOCC3)n2)C1",
    "result type": "pEC50",
    "value observed": "> 5.00"
  },
  {
    "molecule": "Nc1ncc(-c2cc(Oc3cccnc3)nc(N3CCOCC3)n2)cn1",
    "result type": "pEC50",
    "value observed": "> 6.00"
  }
]

// next entry
# query: pEC50 of entry `CC(C)N1CC[C@H](Oc2ccc(Nc3cc(-c4cnc(N)cc4C(F)(F)F)nc(N4CCOCC4)n3)cn2)C1`
> 5.00

---

Tested on: A2780 ovarian cancer cells
Assay: Cellular proliferation in A2780 cells, Cell Titer Glo (Biological Method 4)
Format: cell-based
Conditions: Homo sapiens; ovarian cancer cell line A2780
result type: EC50

Answered examples (3):
[
  {
    "molecule": "Nc1ccc(-c2cc(Nc3ccnc(Cl)c3)nc(N3CCOCC3)n2)cn1 [Compound 155]",
    "result type": "EC50",
    "value observed": "< 10 µM"
  },
  {
    "molecule": "CS(=O)(=O)Nc1ccccc1-c1cc(-c2cnc(N)cc2C(F)(F)F)nc(N2CCOCC2)n1 [Compound 159]",
    "result type": "EC50",
    "value observed": "< 10 µM"
  },
  {
    "molecule": "Nc1ncc(-c2cc(Cl)nc(N3CCOCC3)n2)c(N)n1 [Compound 464]",
    "result type": "EC50",
    "value observed": "< 25 µM"
  }
]

Fill in the blank: the reported EC50 of CC(C)OC(=O)N1CCC(Oc2cc(-c3cnc(N)[nH]c3=O)nc(N3CCOCC3)n2)CC1 [Compound 32] is ____.
< 1 µM

---

Biological target: PI3 kinase alpha (Homo sapiens, UniProt P42336)
Assay: PI3K ATP depletion assay (Biological Method 1, Assay 3; KinaseGlo luminescence)
Assay type: biochemical
Settings: ATP depletion assay; read-out: PI3 Kinase Alpha, IC50
result type: IC50

Solved entries (count: 2):
[
  {
    "test smiles": "Nc1ccc(-c2cc(-c3ccc(NCCN4CCCC4)nc3)nc(N3CCOCC3)n2)cn1",
    "target entity": "PI3 kinase alpha (Homo sapiens, UniProt P42336)",
    "value observed": "< 1 µM"
  },
  {
    "test smiles": "Nc1ncc(-c2nc(N3CCOCC3)ncc2C(=O)NCC2CC2)cn1",
    "target entity": "PI3 kinase alpha (Homo sapiens, UniProt P42336)",
    "value observed": "< 10 µM"
  }
]

# IC50 lookup, item `Nc1ncc(-c2cc(Nc3ccc4c(c3)OCC(=O)N4)nc(N3CCOCC3)n2)cn1`
< 1 µM

I would be grateful if you could share the reported IC50 for `CN(C)c1ncccc1-c1cc(-c2ccc(N)nc2)nc(N2CCOCC2)n1` .
< 10 µM

If you can, please state the reported IC50 value of `CC(=O)N1CCC(Oc2cc(-c3cnc(N)[nH]c3=O)nc(N3CCOCC3)n2)CC1` .
< 1 µM

Can you share its IC50? I mean this compound: `COc1ccc(Nc2cc(-c3cnc(N)nc3C)nc(N3CCOCC3)n2)cn1`
< 1 µM

Item `Nc1ccc(-c2nc(N3CCOCC3)ncc2C(F)(F)F)cn1` has what recorded IC50?
< 10 µM

Please report the recorded IC50 for `Nc1ncc(-c2cc(NCC3CCCCC3)nc(N3CCOCC3)n2)cn1` .
< 1 µM

I would be grateful if you could share the reported IC50 for `CCN(CC)Cc1cnc(Nc2cc(-c3cnc(N)nc3N)nc(N3CCOCC3)n2)s1` .
< 1 µM

Source listed as patent US8217035B2.
